assay: self-splicing fitness, log relative to wild type (ln ratio); higher = more splicing; Tetrahymena group I intron in knt gene, E. coli kanamycin selection, DiMSum; sequences stand for … in CUCUCU…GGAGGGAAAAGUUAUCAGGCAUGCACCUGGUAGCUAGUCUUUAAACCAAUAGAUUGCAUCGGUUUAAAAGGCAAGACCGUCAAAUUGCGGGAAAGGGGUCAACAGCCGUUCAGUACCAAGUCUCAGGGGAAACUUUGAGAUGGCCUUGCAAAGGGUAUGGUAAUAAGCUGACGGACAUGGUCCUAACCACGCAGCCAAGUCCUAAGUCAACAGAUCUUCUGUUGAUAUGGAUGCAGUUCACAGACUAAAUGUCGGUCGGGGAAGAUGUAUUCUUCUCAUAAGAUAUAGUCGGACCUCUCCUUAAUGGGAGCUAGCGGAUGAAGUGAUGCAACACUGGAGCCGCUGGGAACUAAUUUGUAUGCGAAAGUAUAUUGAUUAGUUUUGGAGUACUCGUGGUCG; details: 30 °C;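 further: selection with 25 µg/mL kanamycin versus none on LB agar overnight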
measurementLabel: self-splicing fitness (ln)
Just the number.

Here's what some known entries look like.
GGUCAGCAAUAUUACGGUCA; -0.669
GCUGAGCAAUAUUACGAGAG; -2.49
CCUGAGCAAUAUUACGGAUG; -1.52
UUAUAGCAAUAUUACGCUAG; -1.92
CAGCAGCAAUAUUACGGGGA; -1.98

Supply reported self-splicing fitness (ln) belonging to this sequence: CAAUAGCAAUAUUACGUAAA
-2.68

Supply recorded self-splicing fitness (ln) for AGGGAGCAAUAUUACGGGUG here.
-4.12

Look up and report measured self-splicing fitness (ln) for this entry: UCGAAGCAAUAUUACGACGG
-1.8

Tell me measured self-splicing fitness (ln) for GUGCAGCAAUAUUACGGGAU please.
-1.66

Give reported self-splicing fitness (ln) value for GUAGAGCAAUAUUACGGAUU
-2.61
